Tested on: A498 renal
Test: NCI-60 one-dose screen, 48 h (100 = growth as untreated, 0 = no growth, -100 = all killed)
Settings: 10 µM unless noted
About 83,000 compounds went through this panel and 20% of them were active in at least one assay; those are over-represented in the sample as a whole.
REPORTED_ENDPOINT: growth (%)
Answers are plain numbers, in %.

// solved cases for growth follow
entry_smiles=O=C(/C(=C/c1cccc([N+](=O)[O-])c1)c1ccccc1)c1ccccc1 reported_endpoint=growth recorded_measurement=66.2
entry_smiles=Fc1ccc(-c2nnc(/C=C/c3cn(-c4ccccc4)nc3-c3ccccc3)o2)cc1 reported_endpoint=growth recorded_measurement=111
entry_smiles=Nc1cc(Cl)c(S(N)(=O)=O)cc1S(N)(=O)=O reported_endpoint=growth recorded_measurement=116
entry_smiles=O=C(Oc1ccc[nH]c1=O)c1cccc(Cl)c1 reported_endpoint=growth recorded_measurement=127

Need growth for each of these compounds.
1. Cc1ccccc1NC(=O)c1cc2ccccc2cc1O
2. Cc1ccc(NC(=O)COC(=O)c2ccc(S(=O)(=O)N3CCCCCC3)cc2)cc1

Out:
43
128

Sourced from PubChem BioAssay (NCI)
